Tested on: Trichoderma virens ATCC 9645
Test: growth yield (OD600) with compound + IPBC relative to untreated control; higher = less growth inhibition
Conditions: compound concentration: 100 uM; IPBC concentration: 200 ng/ml; 40 h
Where a name gives a salt, the structure may show the parent alone. Hit rate of the full screen: of about 1,300 compounds, about 130 (10%) showed an effect of 50% or more. The list comes from a sample in which strong results are over-represented; it also holds close analogues and randomly drawn compounds.
recorded-metric: growth yield (%)
Quick note: give the figure in %, leave out the unit.

Could you please provide reported growth yield for O=C1[C@H]2CCCC[C@H]2C(=O)N1CCCCN1CCN(c2nsc3ccccc23)CC1 [Perospirone] + CCCCNC(=O)OCC#CI [3-iodo-2-propynyl butylcarbamate (IPBC)] ? Thanks!
79.4

Could you please provide reported growth yield for C=C1CC[C@@]2(O)[C@H]3Cc4ccc(O)c5c4[C@@]2(CCN3CC2CC2)[C@H]1O5 [Nalmefene hydrochloride] + CCCCNC(=O)OCC#CI [3-iodo-2-propynyl butylcarbamate (IPBC)] ? Thanks!
104

# return recorded growth yield for input CC(C(=O)O)c1ccc2c(c1)Cc1cccnc1O2 (stereo unspecified) [Pranoprofen] + CCCCNC(=O)OCC#CI [3-iodo-2-propynyl butylcarbamate (IPBC)]
92

Give me measured growth yield, please, for this molecule: Cc1cc(N)c2ccccc2[n+]1CCCCCCCCCC[n+]1c(C)cc(N)c2ccccc21 [Dequalinium dichloride] + CCCCNC(=O)OCC#CI [3-iodo-2-propynyl butylcarbamate (IPBC)]
3.81

Identify measured growth yield corresponding to CCCCOC(=O)c1ccc(N)cc1 [Butamben] + CCCCNC(=O)OCC#CI [3-iodo-2-propynyl butylcarbamate (IPBC)]
53.5

Give the reported growth yield for this molecule. CCCc1nc(C(C)(C)O)c(C(=O)O)n1Cc1ccc(-c2ccccc2-c2nnn[nH]2)cc1 [Olmesartan] + CCCCNC(=O)OCC#CI [3-iodo-2-propynyl butylcarbamate (IPBC)]
107

Could you please provide reported growth yield for CCCOc1cc(N)ccc1C(=O)OCCN(CC)CC [Propoxycaine hydrochloride] + CCCCNC(=O)OCC#CI [3-iodo-2-propynyl butylcarbamate (IPBC)] ? Thanks!
86.7

Report growth yield, nothing else, for this molecule: CCCCN(CCCC)CCCOC(=O)c1ccc(N)cc1 [Butacaine] + CCCCNC(=O)OCC#CI [3-iodo-2-propynyl butylcarbamate (IPBC)]
106

Input CN1C(=O)CCS(=O)(=O)C1c1ccc(Cl)cc1 (stereo unspecified) [Chlormezanone] + CCCCNC(=O)OCC#CI [3-iodo-2-propynyl butylcarbamate (IPBC)] , output reported growth yield.
86.7

Find the measured growth yield of OC(c1cc(C(F)(F)F)nc2c(C(F)(F)F)cccc12)C1CCCCN1 (stereo unspecified) [Mefloquine hydrochloride] + CCCCNC(=O)OCC#CI [3-iodo-2-propynyl butylcarbamate (IPBC)] and report it.
74.8

Identify growth yield associated with the molecule CCCCOC(=O)c1ccc(O)cc1 [Butylparaben] + CCCCNC(=O)OCC#CI [3-iodo-2-propynyl butylcarbamate (IPBC)]
27.5

----------
Tested on: Trichoderma virens ATCC 9645
Assay: growth yield (OD600) with compound + IPBC relative to untreated control; higher = less growth inhibition
Conditions: compound concentration: 100 uM; IPBC concentration: 200 ng/ml; 72 h
Where a name gives a salt, the structure may show the parent alone. Among all 1,300 compounds or so, about 130 (10%) showed an effect of 50% or more. This excerpt belongs to a sample that is enriched for strong results.
recorded-metric: growth yield (%)
Your answer should be a plain number; it is taken to be in %.

// fetch growth yield given entry c1ccc(CN(CC2=NCCN2)c2ccccc2)cc1 [Antazoline hydrochloride] + CCCCNC(=O)OCC#CI [3-iodo-2-propynyl butylcarbamate (IPBC)]
94.3

State its growth yield for this compound: CC(=C(CCO)SSCC1CCCO1)N(C=O)Cc1cnc(C)nc1N (stereo in doubt) [Fursultiamine Hydrochloride] + CCCCNC(=O)OCC#CI [3-iodo-2-propynyl butylcarbamate (IPBC)]
102

State its growth yield: C=CC[C@]1(O)CC[C@H]2[C@@H]3CCC4=CC(=O)CCC4=C3C=C[C@@]21C [Altrenogest] + CCCCNC(=O)OCC#CI [3-iodo-2-propynyl butylcarbamate (IPBC)]
93.8

Please list growth yield recorded for the compound C[N+]12CCC(CC1)C(OC(=O)C(O)(c1ccccc1)c1ccccc1)C2 (stereo not given) [Clidinium bromide] + CCCCNC(=O)OCC#CI [3-iodo-2-propynyl butylcarbamate (IPBC)]
95.8

Complete the entry with growth yield for Cc1cn([C@H]2C=C[C@@H](CO)O2)c(=O)[nH]c1=O [Stavudine] + CCCCNC(=O)OCC#CI [3-iodo-2-propynyl butylcarbamate (IPBC)]
97.6

Where do the numbers come from? From the supplement of paper PMC8007513.
